subjectOfTest: cellular BACE1 in CHOK1-huAPP cells
protocolNotes: cell-based or functional assay
metricName: Max. % inhibition

Form: binder = 2H8.35 (antibody, human IgG1, V domains shown, human IgG1/kappa; also called 2H8_HCvar5 + 2H8_LCvar6) VH: EVQLQQPGAEVVRPGTSVKLSCKASGYTFTNYWMHWVKQRPGQGLEWIGMIDPSDNYTKYNQKLKGKATLTVDTSSSTANMHVNSLTSEDSAVYFCARSGVAFPYWGQGTLVTVSA VL: DIQMTQSQKFMSKSVGDRVSVTCKASQNVGSNVAWYQQKSGQSPKSLIYSASHRYSGVPDRFTGSGSGTDFTLTISNVQSEDLADYFCQQYNSYPYTFGGGTRLEIK ; Max. % inhibition = 85%

Form: binder = 2H8.32 (antibody, human IgG1, V domains shown, human IgG1/kappa; also called 2H8_HCvar2 + 2H8_LCvar6) VH: EVQLQQPGTELVRPGTSVKLSCKASGYTFTNYWMHWIKQRPGQGLEWIGMIDPSDTYTKFNQNFKGKATLTVDTSSSTAYMQLNSLTSEDSAVYYCARSGVAFPYWGQGTTVTVSS VL: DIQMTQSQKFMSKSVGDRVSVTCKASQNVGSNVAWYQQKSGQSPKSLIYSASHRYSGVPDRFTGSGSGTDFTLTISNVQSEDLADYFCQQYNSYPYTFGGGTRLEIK ; Max. % inhibition = 86%

Form: binder = 2H8.02 (antibody, human IgG1, V domains shown, human IgG1/kappa; also called 2H8_HCvar2 + 2H8_LC) VH: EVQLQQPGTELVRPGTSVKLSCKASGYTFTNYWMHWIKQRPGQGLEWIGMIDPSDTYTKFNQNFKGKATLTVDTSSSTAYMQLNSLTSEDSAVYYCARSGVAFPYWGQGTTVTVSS VL: DIVMTQSQKFMSKSVGDTVSVTCKASQDVGRNVAWYQQKSGQSPKSLIYSASHRYSGVPDRFTGSGSGTDFTLTISNVQSEDLADYFCQQYNSYPYTFGGGTRLEIK ; Max. % inhibition = 81%
